- Tested on: Escherichia Coli (E. coli, ATCC25922)
- Test Protocol: Anti-microbial rate of finished cotton textiles, FZ/T73023-2006 D.8 shocking method
- Assay type: cell-based
- Run Parameters: Escherichia coli, ATCC25922, finishing liquid 1.0 wt %; times of washing 50; read-out: Anti-microbial rate (%) of cotton textiles finished with compound E (1.0 wt %), E. coli
# Lookup of reported killing at 1 % keyed by entry
Note: a bare number is incomplete; add the unit.

Can you look up the measured killing at 1 % of Cc1nc(Cl)nc(OCCn2cc[n+](C)c2)n1 [Example 12] for me? 98.9%

---

- Tested on: Escherichia Coli (E. coli, ATCC25922)
- Test Protocol: Anti-microbial rate of finished cotton textiles, FZ/T73023-2006 D.8 shocking method
- Type: cell-based
- Run Parameters: Escherichia coli, ATCC25922, finishing liquid 1.0 wt %; times of washing 50; read-out: Anti-microbial rate (%) of cotton textiles finished with compound E (1.0 wt %), E. coli
Quantity: killing at 1 % (%)
Express it in %; write the number only.

Examples with answers:
> print(dat)
                                   compound        quantity  uom  assay.result
1  CCCCCCCCCC[n+]1ccc(CCOc2nc(Cl)nc(Br)n2)cc1  killing at 1 %    %          99.5
2  CCCCCCCCCCCCCC[n+]1ccn(CCCNc2nc(C)nc(Cl)n2)c1  killing at 1 %    %          99.9
3  C[N+](C)(CCCS(=O)(=O)[O-])CCOc1nc(Cl)nc(Cl)n1 [Comparative Experiment, reference compound]  killing at 1 %    %            75
4  C[N+](C)(C)CCCCCCCCCCCCCCCCCCN(CCCCCCCCCCCCCCCCCC[N+](C)(C)C)CCOc1nc(Cl)nc(Cl)n1  killing at 1 %    %          97.9
5  Clc1nc(Cl)nc(OCCC[P+](c2ccccc2)(c2ccccc2)c2ccccc2)n1  killing at 1 %    %          95.9
6  Br.CCCCCCCCCC[N+](C)(C)CN(CCOc1nc(Cl)nc(Cl)n1)C[N+](C)(C)CCCCCCCCCC  killing at 1 %    %          99.7
7  CCCCCCCCCCCCCCCCCC[n+]1ccn(CCOc2nc(Cl)nc(Cl)n2)c1  killing at 1 %    %          99.9

# context switch: different compound, same killing at 1 %
Please state recorded killing at 1 % (tested on Escherichia Coli (E. coli, ATCC25922)) of `C[N+](C)(C)COc1nc(Cl)nc(Cl)n1` 99.1

---

- Test system: Escherichia Coli (E. coli, ATCC25922)
- Test Protocol: Anti-microbial rate of finished cotton textiles, FZ/T73023-2006 D.8 shocking method
- Format: cell-based
- Run Parameters: Escherichia coli, ATCC25922, finishing liquid 1.0 wt %; times of washing 10; read-out: Anti-microbial rate (%) of cotton textiles finished with compound E (1.0 wt %), E. coli
Quantity: killing at 1 % (%)
Express it in %; write the number only.

Examples with answers:
> print(dat)
                                   compound  assay.result
1  CCCCCCCC[N+](C)(C)CC(C)Oc1nc(Cl)nc(Cl)n1 (stereo not drawn)          99.9
2  CCCCCCCCCCCCCC[n+]1ccn(CCCNc2nc(C)nc(Cl)n2)c1          99.9
3            C[N+](C)(C)CCNc1nc(Cl)nc(Cl)n1          99.9

Can you look up the measured killing at 1 % of `CCCCCCCC[N+](C)(C)CCOc1nc(Cl)nc(Cl)n1` for me? 99.9

Can you look up the measured killing at 1 % of `C[N+](C)(C)COc1nc(Cl)nc(Cl)n1` for me? 99.9

Can you look up the measured killing at 1 % of `C[n+]1ccc(COc2nc(Cl)nc(Cl)n2)cc1` for me? 99.9

Can you look up the measured killing at 1 % of `Clc1nc(Cl)nc(OCCC[P+](c2ccccc2)(c2ccccc2)c2ccccc2)n1` for me? 99.9

Can you look up the measured killing at 1 % of `C[n+]1ccc(CNc2nc(Cl)nc([N+](=O)[O-])n2)cc1` for me? 99.9

Can you look up the measured killing at 1 % of `CCCCCCCCCCCC[N+](C)(C)CCN(CCOc1nc(Cl)nc(Cl)n1)CC[N+](C)(C)CCCCCCCCCCCC` for me? 99.9

---

- Tested on: Escherichia Coli (E. coli, ATCC25922)
- Test Protocol: Anti-microbial rate of finished cotton textiles, FZ/T73023-2006 D.8 shocking method
- Type: cell-based
- Run Parameters: Escherichia coli, ATCC25922, finishing liquid 1.0 wt %; times of washing 50; read-out: Anti-microbial rate (%) of cotton textiles finished with compound E (1.0 wt %), E. coli
Quantity: killing at 1 % (%)
Express it in %; write the number only.

Examples with answers:
> print(dat)
                                   compound                    experimental.target  assay.result
1  C[n+]1ccn(CCCNc2nc(Cl)nc(Cl)n2)c1 [Example 14]  Escherichia Coli (E. coli, ATCC25922)          99.1
2  C[n+]1ccc(CNc2nc(Cl)nc([N+](=O)[O-])n2)cc1 [Example 9]  Escherichia Coli (E. coli, ATCC25922)          99.9
3  C[N+](C)(C)CCNc1nc(Cl)nc(Cl)n1 [Example 3]  Escherichia Coli (E. coli, ATCC25922)          99.2
4  CCCCCCCC[N+](C)(C)CC(C)Oc1nc(Cl)nc(Cl)n1 (stereo not drawn) [Example 6]  Escherichia Coli (E. coli, ATCC25922)          99.5
5  C[n+]1ccn(CCCCCCCCCCCCCCCCCCOc2nc(Cl)nc(Cl)n2)c1 [Example 13]  Escherichia Coli (E. coli, ATCC25922)          99.5
6  CCCCCCCC[N+](C)(C)CCOc1nc(Cl)nc(Cl)n1 [Example 1]  Escherichia Coli (E. coli, ATCC25922)          99.2

Can you look up the measured killing at 1 % of CCCCCCCCCCCC[N+](C)(C)CCN(CCOc1nc(Cl)nc(Cl)n1)CC[N+](C)(C)CCCCCCCCCCCC [Example 17] for me? 99.5

Can you look up the measured killing at 1 % of C[n+]1ccc(COc2nc(Cl)nc(Cl)n2)cc1 [Example 15] for me? 98.9

Can you look up the measured killing at 1 % of CCCCCCCCCCCC[n+]1cc[n+](CCCCCCCCCCCC)c(CCSc2nc(Cl)nc(Cl)n2)c1 [Example 16] for me? 99.8
